- Tested on: A375 cancer cells (melanoma)
- Procedure text: Clonogenic assay cytotoxicity in A375 cells without light
- Assay type: cell-based, human
- Settings: clonogenic assay, 7 hours of exposure, 7 days colony formation, without light; read-out: IC50 (μM), cytotoxicity to A375 cancer cells

Compound	IC50
CN1/C(=C/C=C2C=C(/C=C/C3=[N+](C)c4ccc5ccccc5c4C3(C)C)CCC/2)C(C)(C)c2c1ccc1ccccc21 [BL-141-1]	0.14 µM

###

- System: A375 cancer cells (melanoma)
- Procedure text: Clonogenic assay cytotoxicity in A375 cells without light
- Format: cell-based, human
Metric name: IC50 (nM)

1) C[N+]1=C(/C=C/C2=CC(=C/C=C3/N(CCCCCC(=O)NCCCCCCN)c4ccccc4C3(C)C)/CCC2)C(C)(C)c2ccccc21 750

###

Measured IC50 at 2 days accompanies every entry in the list below.
- Procedure text: Crystal violet cytotoxicity test in A375 cells without light activation
- Type: cell-based, human
- Settings: human
Metric name: IC50 at 2 days (nM)

1) CN(C)CC[N+]1=C(/C=C/C2=CC(=C/C=C3/N(C)c4ccc5ccccc5c4C3(C)C)/CCC2)C(C)(C)c2c1ccc1ccccc21.[I-] 600
2) CN(C)CCCCCCN1/C(=C/C=C2C=C(/C=C/C3=[N+](CCCCCCN(C)C)c4ccc5ccccc5c4C3(C)C)CCC/2)C(C)(C)c2c1ccc1ccccc21.[Br-] 2500
3) CN(C)CCCCCC[N+]1=C(/C=C/C=C/C=C/C=C2/N(C)c3ccc4ccccc4c3C2(C)C)C(C)(C)c2c1ccc1ccccc21 1500

###

- Tested on: HEK293 (epithelial-like kidney cells)
- Procedure text: Presto Blue viability assay, HEK293
- Format: cell-based, human
- Settings: Homo sapiens, HEK293, 8 h, read-out: IC50 (concentration needed to inhibit cell viability by 50%)
pIC50: −log10 of the molar value.
Metric name: pIC50

1) CN(C)C(=O)CN1/C(=C/C=C2C=C(/C=C/C3=[N+](CC(=O)N(C)C)c4ccc5ccccc5c4C3(C)C)CCC/2)C(C)(C)c2c1ccc1ccccc21.[Br-] 4.86

###

Readings of IC50 at 7 h for the listed compounds
- Procedure text: Clonogenic assay cytotoxicity in A375 cells without light
- Format: cell-based, human
- Settings: human
Metric name: IC50 at 7 h (nM)

1) CN(C)CCCCCC[N+]1=C(/C=C/C2=CC(=C/C=C3/N(C)c4ccc5ccccc5c4C3(C)C)/CCC2)C(C)(C)c2c1ccc1ccccc21.[I-] 400
2) CC(=O)NCCCCCC[N+]1=C(/C=C/C=C/C=C/C=C2/N(C)c3ccc4ccccc4c3C2(C)C)C(C)(C)c2c1ccc1ccccc21 190
3) CN1/C(=C/C=C2C=C(/C=C/C3=[N+](CCCCCC(=O)O)c4ccc5ccccc5c4C3(C)C)CCC/2)C(C)(C)c2c1ccc1ccccc21 2000
